- System: SARS-CoV-2, isolate USA-WA1/2020
- assay-details: microbe, parasite or virus in culture
- Format: cell-based
- test-conditions: HeLa-ACE2 SARS-CoV-2 antiviral effect without P-gp inhibitor; minimum measured response of dose series
readout-kind: perc_min_measured (%)
One number for each entry, in %.

# count of solved cases: 2
- compound: "CCNC(=O)c1cc2c(NC(c3ccc4c(c3)S(=O)(=O)CCC4)C(C)C)ncnc2[nH]1 (stereo not drawn)"
  measurement: 90.612
- compound: "CC(C)C(Nc1ncnc2[nH]ccc12)c1ccc2c(c1)S(=O)(=O)CCC2 (stereo not drawn)"
  measurement: 76.031

The compound listed as CC(C)[C@@H](Nc1ncnc2[nH]c(-c3cnn(CC(N)=O)c3)cc12)c1ccc2c(n1)OCCO2 (single isomer, unassigned) has a reported perc_min_measured of 101.22

* * *

- assayed-system: UniProt:P0DTD1
- assay-details: biochemical
- Format: biochemical
- test-conditions: read-out: perc_inhibition_mean
Please provide measured inhibition at 50 µM for the entries that follow.
Answer format: value, then unit.

- molecule: "O=C(O)c1cscc1C(=O)N1CCC(c2ccn3ncc(C(=O)N4CCCCC4)c3c2)CC1 [ASAP-0000259]"
  inhibition at 50 µM: "47.7%"
- molecule: "Cc1[nH]c2ncnc(NC(=O)c3ccncc3Cl)c2c1C [ASAP-0000266]"
  inhibition at 50 µM: "69.6%"
- molecule: "CC(C)C(Nc1ncnc2n[nH]cc12)c1cnn(C)c1 (stereo not shown) [ASAP-0000031]"
  inhibition at 50 µM: "63.5%"

The molecule listed as Cc1[nH]c2ncnc(NC(=O)C3CC=CC3)c2c1C [ASAP-0000025] has a reported inhibition at 50 µM of 73.1%

* * *

- assay-details: Hepatic microsomal stability, MLM
- Type: in vitro ADME
- test-conditions: In vitro mouse liver microsomal stability
readout-kind: perc_remaining (%)
Answers are plain numbers, in %.

- compound: "Cn1ncc(-c2cc3c(N[C@@H](c4ccc5c(c4)OCCO5)C(C)(C)C)ncnc3[nH]2)c1C#N (racemic)"
  perc_remaining / %: 4.0
- compound: "CC(C)[C@H](Nc1ncnc2[nH]c(-c3cnn(CC(N)=O)c3)cc12)c1ccc2c(c1)S(=O)(=O)CCC2 (racemic) [ASAP-0008679]"
  perc_remaining / %: 37.0
- compound: "CNC(=O)c1c[nH]c2ncnc(N[C@@H](c3ccc4c(c3)OCCO4)C(C)C)c12"
  perc_remaining / %: 20.0

Below are 2 compounds. Give each one its perc_remaining.
1. CC(C)[C@@H](Nc1ncnc2[nH]c(-c3cnn(C)c3)cc12)c1ccc2c(c1)S(=O)(=O)CCC2 (single isomer, unassigned) [ASAP-0012329]
2. CC(C)(C)[C@H](Nc1ncnc2[nH]c(-c3cnn(CC(N)=O)c3)cc12)c1ccc2c(c1)OCCO2 (single isomer, unassigned) [ASAP-0012330]

Result:
1: 10.0; 2: 48.0

Below are 2 compounds. Give each one its perc_remaining.
1. CNC(=O)c1cc2c(N[C@@H](c3ccc4c(c3)NC(=O)CO4)C(C)C)ncnc2[nH]1 [ASAP-0011219]
2. CC(C)[C@H](Nc1ncnc2[nH]c(-c3cnn(C)c3C#N)cc12)c1ccc2c(c1)NC(=O)CO2 (racemic) [ASAP-0008576]

Result:
[57.0, 6.0]

* * *

- assay-details: in vitro
- test-conditions: human, hela-ace2 cells, 50.0
readout-kind: CC50 at 24 h

- compound: "CNCc1cc(-c2cc3c(N[C@H](c4ccc5c(c4)S(=O)(=O)CCC5)C(C)C)ncnc3[nH]2)co1 (single isomer, unassigned) [ASAP-0011169]"
  measurement: "> 20 µM"
- compound: "CNC(=O)c1cccc(-c2cc3c(N[C@H](c4ccc5c(c4)S(=O)(=O)CCC5)C(C)C)ncnc3[nH]2)c1 (single isomer, unassigned) [ASAP-0012338]"
  measurement: "> 20 µM"

Please examine the following record next.
The compound listed as CC(C)[C@H](Nc1ncnc2[nH]c(-c3cnn(C)c3C#N)cc12)c1ccc2c(n1)OCCO2 [ASAP-0010715] has a reported CC50 at 24 h of > 20 µM

* * *

- assayed-system: NaV1.5 (Homo sapiens)
- Sequence (Q14524 whole entry): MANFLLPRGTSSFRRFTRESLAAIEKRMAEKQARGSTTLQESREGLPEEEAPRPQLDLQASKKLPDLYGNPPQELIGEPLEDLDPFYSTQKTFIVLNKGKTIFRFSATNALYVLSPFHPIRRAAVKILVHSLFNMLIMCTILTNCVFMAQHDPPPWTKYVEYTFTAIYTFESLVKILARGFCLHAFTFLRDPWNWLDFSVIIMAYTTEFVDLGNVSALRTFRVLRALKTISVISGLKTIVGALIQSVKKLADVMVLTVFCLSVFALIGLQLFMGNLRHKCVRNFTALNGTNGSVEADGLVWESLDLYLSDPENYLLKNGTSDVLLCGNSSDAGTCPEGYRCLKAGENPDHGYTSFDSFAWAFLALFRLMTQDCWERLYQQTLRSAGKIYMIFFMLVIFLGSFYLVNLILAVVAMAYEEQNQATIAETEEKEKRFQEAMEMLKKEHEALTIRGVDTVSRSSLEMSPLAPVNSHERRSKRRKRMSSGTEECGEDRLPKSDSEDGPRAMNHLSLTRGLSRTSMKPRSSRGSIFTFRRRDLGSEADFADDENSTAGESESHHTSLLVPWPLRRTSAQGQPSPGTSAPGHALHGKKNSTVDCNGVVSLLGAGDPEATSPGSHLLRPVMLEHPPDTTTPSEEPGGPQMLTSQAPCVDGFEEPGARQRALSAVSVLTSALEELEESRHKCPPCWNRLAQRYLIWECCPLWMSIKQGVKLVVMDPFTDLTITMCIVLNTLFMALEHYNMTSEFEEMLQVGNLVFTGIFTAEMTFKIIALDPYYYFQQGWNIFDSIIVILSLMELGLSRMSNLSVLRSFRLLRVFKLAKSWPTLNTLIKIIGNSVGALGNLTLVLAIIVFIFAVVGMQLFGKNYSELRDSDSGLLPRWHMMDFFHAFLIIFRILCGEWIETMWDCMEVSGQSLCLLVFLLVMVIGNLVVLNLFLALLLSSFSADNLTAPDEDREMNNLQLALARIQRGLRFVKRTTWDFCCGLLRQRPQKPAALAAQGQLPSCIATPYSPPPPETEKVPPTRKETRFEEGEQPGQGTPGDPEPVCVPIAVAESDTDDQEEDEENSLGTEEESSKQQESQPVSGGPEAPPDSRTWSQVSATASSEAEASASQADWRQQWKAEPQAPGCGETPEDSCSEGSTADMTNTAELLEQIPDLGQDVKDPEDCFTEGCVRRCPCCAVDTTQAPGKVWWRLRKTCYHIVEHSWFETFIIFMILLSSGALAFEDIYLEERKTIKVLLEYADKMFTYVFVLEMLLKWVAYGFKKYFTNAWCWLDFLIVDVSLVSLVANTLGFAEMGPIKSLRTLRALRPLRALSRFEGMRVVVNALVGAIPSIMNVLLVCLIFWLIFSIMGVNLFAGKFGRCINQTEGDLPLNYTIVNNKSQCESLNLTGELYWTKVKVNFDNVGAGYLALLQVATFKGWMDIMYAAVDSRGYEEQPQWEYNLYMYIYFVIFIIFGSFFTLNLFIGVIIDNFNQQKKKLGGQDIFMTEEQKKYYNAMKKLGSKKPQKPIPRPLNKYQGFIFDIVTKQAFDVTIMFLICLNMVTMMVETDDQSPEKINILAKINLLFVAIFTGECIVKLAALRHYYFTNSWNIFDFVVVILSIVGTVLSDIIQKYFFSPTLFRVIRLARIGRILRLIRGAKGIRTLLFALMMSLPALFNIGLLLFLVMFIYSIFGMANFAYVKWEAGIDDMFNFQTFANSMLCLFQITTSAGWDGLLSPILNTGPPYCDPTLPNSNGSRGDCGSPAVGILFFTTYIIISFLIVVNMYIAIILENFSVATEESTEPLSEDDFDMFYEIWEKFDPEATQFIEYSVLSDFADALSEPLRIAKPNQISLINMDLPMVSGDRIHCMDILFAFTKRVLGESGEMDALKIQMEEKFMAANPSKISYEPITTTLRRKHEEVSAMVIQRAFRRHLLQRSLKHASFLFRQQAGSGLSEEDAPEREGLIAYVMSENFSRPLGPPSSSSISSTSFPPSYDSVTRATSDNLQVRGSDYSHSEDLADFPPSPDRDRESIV
- assay-details: In vitro NaV1.5 cardiotoxicity
- test-conditions: NaV1.5, use dependent block; top test concentration 30 uM
Please enter label 1 where perc_inhibition_use_dep_block is greater than or equal to 20%, and label 0 where it is lower.

// below: answered compounds
- sample-smiles: "Cn1ncc(-c2cc3c(N[C@@H](c4ccc5c(n4)OCCO5)C(C)(C)C)ncnc3[nH]2)c1C#N"
  assayed-system: "NaV1.5 (Homo sapiens)"
  qualitative-label: "label 1"
- sample-smiles: "C[C@H](C(=O)O)[C@@H](NC(=O)c1ncnc2[nH]ccc12)c1ccc(Br)cc1"
  assayed-system: "NaV1.5 (Homo sapiens)"
  qualitative-label: "label 0"

# evaluate next
Problem: Does CNCc1cc(-c2cc3c(N[C@@H](c4ccc5c(c4)S(=O)(=O)CCC5)C(C)C)ncnc3[nH]2)co1 have a reported perc_inhibition_use_dep_block of at least 20%?
Result: label 0

* * *

- assay-details: Permeability Papp (AB) MDR1/MDCKII
- test-conditions: MDR1-MDCKII, recovery A to B, with inhibitor Verapamil
Please provide measured perc_recovery_a_to_b_inhibitor_mean for the entries that follow.
Give bare numbers, in %.

# count of solved cases: 2
- compound: "CNCc1cc(-c2cc3c(N[C@@H](c4ccc5c(c4)S(=O)(=O)CCC5)C(C)C)ncnc3[nH]2)co1 [ASAP-0011176]"
  measurement-units: "%"
  perc_recovery_a_to_b_inhibitor_mean: 67.3
- compound: "CC(C)[C@@H](Nc1ncnc2[nH]c(-c3cnn(C)c3C#N)cc12)c1ccc2c(n1)OCCO2 [ASAP-0010716]"
  measurement-units: "%"
  perc_recovery_a_to_b_inhibitor_mean: 107.0

Below are 3 compounds. Give each one its perc_recovery_a_to_b_inhibitor_mean.
1. CC(C)[C@@H](Nc1ncnc2[nH]ccc12)c1ccc2c(c1)S(=O)(=O)CCC2 (single isomer, unassigned) [ASAP-0008676]
2. CNC(=O)c1cc2c(N[C@@H](c3ccc4c(c3)S(=O)(=O)CCC4)C(C)C)ncnc2[nH]1 (single isomer, unassigned) [ASAP-0012346]
3. CC(C)[C@H](Nc1ncnc2[nH]c(-c3cnn(CC(N)=O)c3)cc12)c1ccc2c(c1)S(=O)(=O)CCC2 (single isomer, unassigned) [ASAP-0011428]

Result:
1: 82.4; 2: 98.1; 3: 73.2

The compound listed as CCNC(=O)c1cc2c(N[C@@H](c3ccc4c(c3)S(=O)(=O)CCO4)C(C)C)ncnc2[nH]1 (racemic) [ASAP-0012317] has a reported perc_recovery_a_to_b_inhibitor_mean of 92.9

* * *

- assayed-system: SARS-CoV-2 nsp3-mac1 (Severe acute respiratory syndrome coronavirus 2, UniProt P0DTD1)
- assay-details: biochemical
- Type: biochemical
- test-conditions: SARS-CoV-2 nsp3 macrodomain TR-FRET single point; concentration 99.5 uM
readout-kind: perc_inhibition_mean (%)
Give bare numbers, in %.

# count of solved cases: 4
- compound: "CC(C)[C@@H](Nc1ncnc2[nH]ccc12)c1nncn1C [ASAP-0000384]"
  measurement-units: "%"
  perc_inhibition_mean: 10.829
- compound: "COc1cc(CC(=O)Nc2cc3c(=O)nc[nH]c3cn2)on1 [ASAP-0000366]"
  measurement-units: "%"
  perc_inhibition_mean: -3.481
- compound: "COC[C@@H](Nc1ncnc2nc[nH]c12)c1ccc(C)o1 [ASAP-0000425]"
  measurement-units: "%"
  perc_inhibition_mean: 3.942
- compound: "O=C(Cc1ccns1)Nc1ncnc2[nH]cnc12 [ASAP-0000359]"
  measurement-units: "%"
  perc_inhibition_mean: -3.24

The compound listed as O=C(c1nc(=O)[nH][nH]1)N1CCC(c2ccn3ncc(C(=O)N4CCCCC4)c3c2)CC1 [ASAP-0000419] has a reported perc_inhibition_mean of 34.579

* * *

Please provide measured perc_inhibition_mean for the entries that follow.
- assayed-system: SARS-CoV-2 nsp3-mac1 (Severe acute respiratory syndrome coronavirus 2, UniProt P0DTD1)
- assay-details: biochemical
- Format: biochemical
- test-conditions: SARS-CoV-2 nsp3 macrodomain TR-FRET single point; concentration 49.75 uM
Numbers only, in %.

# count of solved cases: 3
- sample-smiles: "O=C(O)c1cnc(C(=O)N2CCC(c3ccn4ncc(C(=O)N5CCCCC5)c4c3)CC2)cn1"
  measurement-units: "%"
  perc_inhibition_mean: 27.543
- sample-smiles: "O=C(CCN(Cc1cccc(Cl)c1)C(=O)[C@H]1CCOC1)N1CCNCC1"
  measurement-units: "%"
  perc_inhibition_mean: 4.078
- sample-smiles: "Cc1[nH]nc(C(=O)N2CCC(c3ccn4ncc(C(=O)N5CCCCC5)c4c3)CC2)c1C"
  measurement-units: "%"
  perc_inhibition_mean: 18.038

Below are 5 molecules. Give each one its perc_inhibition_mean.
1. Cc1nn(-c2ccccc2)c(C)c1[C@H]1COCCN1c1ncnc2[nH]ccc12
2. C[C@@H](Cc1ccc(Cl)s1)Nc1ccc([C@@H](CC(=O)O)NC(=O)c2c[nH]c3ncncc23)cc1
3. O=C(c1nnn[nH]1)N1CCC(c2ccn3ncc(C(=O)N4CCCCC4)c3c2)CC1
4. O=C(c1cccnc1O)N1CCC(c2ccn3ncc(C(=O)N4CCCCC4)c3c2)CC1
5. Cn1nc(C(=O)N2CCC(c3ccn4ncc(C(=O)N5CCCCC5)c4c3)CC2)cc1C(=O)O

Result:
[-0.042, -1.543, 55.152, -7.036, 42.655]
